Sourced from the supplement of paper PMC10567573

B1: DULLARD (parent)
chain: LVVFTASMEIYGSAVADKLDNSRS

Variants of: B1
Assay: protein stability index of a GFP-peptide fusion (GPS, HEK-293T) (PSI 1-6); higher = more stable;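 note: lentivirally expressed fusions sorted by FACS into six bins by GFP to DsRed ratio, PSI derived from sequencing read proportions per bin multiplied by bin number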
Conditions: c terminus: a fixed tail appended
readout_type: protein stability index
The reply should be a number, written without any unit.

Entry Y11R : reported protein stability index = ?
1.88

Entry N21K : reported protein stability index = ?
3.06

Entry I10L : reported protein stability index = ?
1.34

Entry L1E : reported protein stability index = ?
2.25

Entry Y11D : reported protein stability index = ?
1.38

Entry M8Y : reported protein stability index = ?
2.64
